Entry source: the METLIN SMRT retention time set (Domingo-Almenara et al. 2019)

# PROCEDURE_TEXT: gradient 5% acetonitrile 3 min, to 50% in 2 min, to 85% in 15 min, held 3 min, 100 µL/min
# EXPERIMENTAL_CONTEXT: column: Zorbax Extend-C18 2.1 x 50 mm; eluents: water / acetonitrile, 0.1% formic acid
ATTRIBUTE_MEASURED: RP-LC retention time (s)
Reply numerically in s, unit not repeated.

COMPOUND: CCN1c2ccc(C)cc2C(=O)NC12CCN(C(=O)c1cc(OC)cc(OC)c1)CC2
RP-LC retention time, s: 828
//
COMPOUND: O=C(c1cc(-c2ccco2)[nH]n1)N1CCN(c2ccccn2)CC1
RP-LC retention time, s: 583
//
COMPOUND: CCC(C)n1nnc2cc(S(=O)(=O)N3CCC(C(=O)NCc4cccnc4)CC3)ccc21 (stereo not drawn)
RP-LC retention time, s: 648
//
COMPOUND: CCCc1noc(-c2ccnc(-n3ncc(C(=O)N4CCSCC4)c3C)c2)n1
RP-LC retention time, s: 974
//
COMPOUND: CCN(CC)CCNC(=O)Cn1nc(C)c2nn(-c3ccc(F)cc3)c(-n3cccc3)c2c1=O
RP-LC retention time, s: 675
//
COMPOUND: O=C(c1cc(-c2cccs2)[nH]n1)N1CCN(c2ccccn2)CC1
RP-LC retention time, s: 596
//
COMPOUND: COc1cccc(-n2c(=O)c3sccc3n(Cc3nc(-c4cccc(C)c4)no3)c2=O)c1
RP-LC retention time, s: 978
//
COMPOUND: COc1ccccc1N1CCN(c2cc(SCC(=O)NCc3ccc4c(c3)OCO4)ncn2)CC1
RP-LC retention time, s: 840
//
COMPOUND: CC(C)CNC(=O)CN1c2ccc(F)cc2-c2ccccc2S1(=O)=O
RP-LC retention time, s: 920
//
COMPOUND: CCOc1nc2ccccc2nc1N1CCCC(C(=O)Nc2cccc(C(F)(F)F)c2)C1 (stereo not drawn)
RP-LC retention time, s: 1370

--- query ---
[ask] Recorded RP-LC retention time for CC(C)CCN1CCC(N2CCN(CCc3ccccc3)CC2)C1=O (stereo not drawn) , please?
[reply] 565
